# Tested On: Rec. human COMT (Homo sapiens, UniProt P21964)
# Sequence (P21964 1-271): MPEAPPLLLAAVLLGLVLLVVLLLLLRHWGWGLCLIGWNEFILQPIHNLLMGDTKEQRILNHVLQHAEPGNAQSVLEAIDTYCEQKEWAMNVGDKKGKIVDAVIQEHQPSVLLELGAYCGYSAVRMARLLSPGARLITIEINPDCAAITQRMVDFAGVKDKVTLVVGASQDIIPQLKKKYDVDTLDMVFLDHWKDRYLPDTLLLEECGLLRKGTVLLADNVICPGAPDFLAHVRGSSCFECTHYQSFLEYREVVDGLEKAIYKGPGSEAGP
# Measurement Description: COMT-Fluorescence Assay
# Type: biochemical
# Condition Description: IC50, COMT-fluorescence assay, rec. human COMT 25 nM, 4-Nitrocatechol-Alexa488 200 nM, SAM 500 nM
Exercise: state measured log10 IC50 for each of the compounds provided.
Recorded IC50 (log10, nM)

Note log10 IC50 for the compound shown: O=c1[nH]cnc2c(O)cc(-c3ccc4c(c3)CNCC4)cc12
1.85

State its log10 IC50: Cc1ccc(-c2cc(O)c3nc[nH]c(=O)c3c2)cc1 [Example 130, 8-Hydroxy-6-p-tolylquinazolin-4(3H)-one]
1.48

Query log10 IC50 for COc1ccc(-c2cc(O)c3nc[nH]c(=O)c3c2)cc1
1.00

Using known records, supply log10 IC50 for O=c1[nH]cnc2c(O)cc(-c3c(F)c(F)c(F)c(F)c3F)cc12
1.30

Please give measured log10 IC50 of the following entry: CCOc1cc(Cl)ccc1-c1cc(O)c2nc[nH]c(=O)c2c1
1.85

Find the measured log10 IC50 of CN1CC=C(c2c(-c3ccc(F)cc3)cc(O)c3nc[nH]c(=O)c23)CC1 and report it.
2.11

Please give measured log10 IC50 of the following entry: O=c1[nH]cnc2c(O)cc(-c3ccc(N4CCOCC4)cc3)cc12
1.00

Answer with reported log10 IC50 of O=c1[nH]cnc2c(O)cc(-c3ccccc3Cl)cc12
1.30

In one line, give reported log10 IC50 of the entry CN1CCc2cc(-c3cc(O)c4nc[nH]c(=O)c4c3)ccc21 .
1.00

Provide measured log10 IC50 value, entry: Cc1ccc(F)cc1-c1cc(O)c2nc[nH]c(=O)c2c1
1.48

Fill in reported log10 IC50 for this entry: O=c1[nH]cnc2c(O)cc(-c3cccc(Cl)c3)cc12
1.00

Please supply the value of reported log10 IC50 for the item CS(=O)(=O)c1ccc(-c2cc(O)c3nc[nH]c(=O)c3c2)c(F)c1
1.48

Specify log10 IC50 for CC(=O)c1ccccc1-c1cc(O)c2nc[nH]c(=O)c2c1 and stop.
2.23

Read the entry O=c1[nH]cnc2c(O)cc(-c3ccccc3N3CCOCC3)cc12 and write its reported log10 IC50.
2.34

Query log10 IC50 for CS(=O)(=O)c1ccccc1-c1cc(O)c2nc[nH]c(=O)c2c1
2.94

For the compound O=c1[nH]cnc2c(O)cc(-c3ccc4c(c3)OCC4)cc12 , give its reported log10 IC50.
1.30

Give a short answer stating reported log10 IC50 for CS(=O)(=O)Cc1ccccc1-c1cc(O)c2nc[nH]c(=O)c2c1 [Example 115, 2,2,2-trifluoroacetate] .
1.70

// fetch log10 IC50 given entry CS(=O)(=O)c1cccc(-c2cc(O)c3nc[nH]c(=O)c3c2)c1
1.30

Supply measured log10 IC50 of O=c1[nH]cnc2c(O)cc(-c3ccc(-n4cccn4)cc3)cc12 in your reply.
1.00

Tell me measured log10 IC50 for CNCCc1ccccc1-c1cc(O)c2nc[nH]c(=O)c2c1 please.
2.49

Report measured log10 IC50; entry is CN(C)Cc1ccccc1-c1cc(O)c2nc[nH]c(=O)c2c1
3.14

Supply log10 IC50 value. Item: O=c1[nH]cnc2c(O)cc(-c3cccc(N4CCOCC4)c3)cc12
1.30

Tell me log10 IC50 reported for CC(C)Oc1cccc(-c2cc(O)c3nc[nH]c(=O)c3c2)c1
1.00

Find the measured log10 IC50 of CN1CCN(c2cc(O)c3nc[nH]c(=O)c3c2)CC1 and report it.
3.11

Please report the measured log10 IC50 for CCc1cc(O)c2nc[nH]c(=O)c2c1 [Example 10, 2,2,2-trifluoroacetate]
3.04

// Input: O=c1[nH]cnc2c(O)cc(-c3ccc(O)cc3)cc12 . Output its log10 IC50 only.
1.48

Give log10 IC50 for O=c1[nH]cnc2c(O)cc(-c3ccc(Cl)cc3)cc12
1.60

Please list log10 IC50 recorded for the compound O=c1[nH]cnc2c(O)cc(-c3ccc(F)cc3F)cc12
1.30

Return log10 IC50 for the following compound: O=c1[nH]cnc2c(O)cc(-c3cc(Cl)ccc3Cl)cc12
1.48

Could you please provide reported log10 IC50 for O=c1[nH]cnc2c(O)cc(-c3cc(F)c(F)c(F)c3)cc12 ? Thanks!
1.60

Give the reported value of log10 IC50 for this record: COCc1cccc(-c2cc(O)c3nc[nH]c(=O)c3c2)c1
1.30

Item CN(C)CCc1cccc(-c2cc(O)c3nc[nH]c(=O)c3c2)c1 : provide log10 IC50
1.70

###

# Tested On: UniProt P21964
# Sequence (P21964 1-271): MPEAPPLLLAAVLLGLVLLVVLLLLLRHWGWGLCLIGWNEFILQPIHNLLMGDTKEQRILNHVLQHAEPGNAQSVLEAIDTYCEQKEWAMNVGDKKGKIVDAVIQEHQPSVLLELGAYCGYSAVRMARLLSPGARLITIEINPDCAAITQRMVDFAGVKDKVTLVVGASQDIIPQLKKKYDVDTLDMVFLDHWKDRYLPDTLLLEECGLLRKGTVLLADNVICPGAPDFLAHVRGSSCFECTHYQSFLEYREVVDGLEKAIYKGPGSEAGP
# Measurement Description: COMT-Fluorescence Assay
# Type: biochemical
# Condition Description: COMT-fluorescence assay, rec. human COMT 25 nM, 4-Nitrocatechol-Alexa488 200 nM, SAM 500 nM; read-out: IC50
Assign labels as follows, please: True for IC50 below 70 nM; False for IC50 equal to or exceeding 70 nM.

Problem: For the compound CCOC(=O)c1cc(O)c2nc[nH]c(=O)c2c1 , is IC50 under 70 nM?
True

Given the entry Cn1nc(C(F)(F)F)cc1-c1cc(O)c2nc[nH]c(=O)c2c1 , would its reported IC50 be below 70 nM?
True

Record O=c1[nH]cnc2c(O)cc(C3=CCOCC3)cc12 : is its IC50 strictly below 70 nM?
True

Given COC(=O)c1cc(C)c(-c2cc(O)c3nc[nH]c(=O)c3c2)s1 , is recorded IC50 strictly lower than 70 nM?
True

Does O=C(NCCN1CCOCC1)c1ccc(-c2cc(O)c3nc[nH]c(=O)c3c2)cc1 have IC50 strictly under 70 nM?
True

Criterion: IC50 strictly below 70 nM. Is it met by Cc1cscc1-c1cc(O)c2nc[nH]c(=O)c2c1 ?
True

I'd appreciate it if you could check whether O=c1[nH]cnc2c(O)cc(-c3ccccc3COCCN3CCOCC3)cc12 has IC50 smaller than 70 nM.
True

Determine if O=c1[nH]cnc2c(O)cc(-c3cnsc3)cc12 shows IC50 strictly lower than 70 nM.
True

Find out if reported IC50 for COc1ncccc1-c1cc(O)c2nc[nH]c(=O)c2c1 is less than 70 nM
True

Quick check: does N#CCc1ccccc1-c1cc(O)c2nc[nH]c(=O)c2c1 have IC50 under 70 nM?
True

Given CN(C)c1ccc(/N=N/c2ccccc2)c(-c2cc(O)c3nc[nH]c(=O)c3c2)c1 , is recorded IC50 strictly lower than 70 nM?
False

In the record for Cc1cn(C)c(-c2cc(O)c3nc[nH]c(=O)c3c2)n1 , is IC50 less than 70 nM?
False

Threshold test, IC50 < 70 nM: Cc1nc(-c2cc(O)c3nc[nH]c(=O)c3c2)cs1
False

Quick check: does CS(=O)(=O)CCc1ccccc1-c1cc(O)c2nc[nH]c(=O)c2c1 [Example 116, 2,2,2-trifluoroacetate] have IC50 under 70 nM?
False

Record COc1ccccc1-c1cc(O)c2nc[nH]c(=O)c2c1 : is its IC50 strictly below 70 nM?
True

Item O=c1[nH]cnc2c(O)cc(-c3ccc(F)cc3)c(-c3cccc(C(F)(F)F)c3)c12 : IC50 beneath 70 nM, strictly?
True

Here's an entry: CN(C)CCNC(=O)c1ccc(-c2cc(O)c3nc[nH]c(=O)c3c2)cc1 . Is its IC50 below 70 nM?
True

###

Would you kindly list IC50 for each of these molecules?
# Tested On: Rec. human COMT (Homo sapiens)
# Measurement Description: COMT-Fluorescence Assay
# Format: biochemical
# Condition Description: COMT-fluorescence assay, rec. human COMT 25 nM, 4-Nitrocatechol-Alexa488 200 nM, SAM 500 nM; read-out: IC50
Just the number please, in nM, no unit attached.

Please tell me the measured IC50 for O=c1[nH]cnc2c(O)c(F)c(-c3ccc(F)cc3)cc12 ; system: Rec. human COMT (Homo sapiens).
20

Provide measured IC50 on Rec. human COMT (Homo sapiens) for CC(C)(O)c1ccccc1-c1cc(O)c2nc[nH]c(=O)c2c1 please.
3600

Give IC50 for this entry on Rec. human COMT (Homo sapiens): O=c1[nH]cnc2c(O)cc(-c3cccnc3O)cc12
270

Write down the reported IC50 (system: Rec. human COMT (Homo sapiens)) of O=C(c1cccc(-c2cc(O)c3nc[nH]c(=O)c3c2)c1)N1CCC(F)(F)CC1
20

Tell me its IC50 on Rec. human COMT (Homo sapiens): CN(C)c1cccc(-c2cc(O)c3nc[nH]c(=O)c3c2)n1
70
